targetUnderTest: T1, Hof1, Q05080
T1 sequence (Q05080 590-669, looked up): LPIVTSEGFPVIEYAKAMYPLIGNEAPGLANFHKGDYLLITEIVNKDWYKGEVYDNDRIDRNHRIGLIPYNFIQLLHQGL
assayNotes: SPOT array
measurementParameters: median of control spots 4086
testReadout: SPOT intensity

AERNYAPRLPRRETS ... 0
MPAPPPPPPPPPGAF ... 0
PELAPKREAPKPPAN ... 0
LYKRKPILLPDPKPL ... 0

1 = QTREPNEPPPPSPAM
2 = NAGIRPKFILALNDE
3 = ISRRRLPVIMHRLKM
Reorder: SPOT intensity, max to min. A complete answer lists every label in the requested sequence.
3, 2, 1
